These entries and their values trace back to patent US20240408169A1.

Tested on: OVCAR3 cells
measurement.notes: MTT proliferation assay, OVCAR3;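 further: compound given as an 8- or 10-point series, one day after plating, with exposure covering roughly 3-4 cell doublings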
Format: cell-based
measurement.context: 5 days compound exposure, 1:3 serial dilution starting at 10 μM
*1 amine or outer side, *2 acyl side, *3 side chain or, on linkers, in order; H or OH if unused. Where a SMILES comes first, the peptide text is derived from it. Bridges are numbered along the chain shown (N, C = ends). [ ]: non-standard residue; d: D form. The star is where a group is joined. X42 = CN([C@@H](Cc1cc(Cl)ccc1-c1cnn(S(=O)(=O)C2CC2)c1)C(=O)[*:2])[*:1]; X23 = CCN([C@@H](Cc1cc(Cl)ccc1-c1ccc(N2CCN(C)CC2)cc1)C(=O)[*:2])[*:1]; NMehhhLys(Me) = CN([C@@H](CCCCCCCN(C)[*:3])C(=O)[*:2])[*:1]; NMe(hhhLys) = CN([C@@H](CCCCCCCN[*:3])C(=O)[*:2])[*:1]; cBuCO(3,3-F2-1-CF3) = O=C(C1(C(F)(F)F)CC(F)(F)C1)*; Pro(trans-4-F) = O=C(O)[C@@H]1C[C@@H](F)CN1; Gly(cPr) = N[C@H](C(=O)O)C1CC1
parameter: GI50 (nM)

CCN1C(=O)[C@H](CC(C)C)NC(=O)[C@@H](N(C)C(=O)[C@@H](NC(=O)[C@@H]2C[C@@H](F)CN2C(=O)C2(C(F)(F)F)CC(F)(F)C2)C2CC2)CCCCCCCN(C)C(=O)[C@@H]1Cc1cc(Cl)ccc1-c1ccc(N2CCN(C)CC2)cc1 [Example 405] ({cBuCO(3,3-F2-1-CF3)}-[Pro(trans-4-F)][Gly(cPr)][NMehhhLys(Me)]L[X23]; lactam 3-C): 50
CC(C)C[C@@H]1NC(=O)[C@@H](N(C)C(=O)[C@@H](NC(=O)[C@@H]2C[C@@H](F)CN2C(=O)C2(C(F)(F)F)CC(F)(F)C2)C2CC2)CCCCCCCNC(=O)[C@H](Cc2cc(Cl)ccc2-c2cnn(S(=O)(=O)C3CC3)c2)N(C)C1=O [Example 300] ({cBuCO(3,3-F2-1-CF3)}-[Pro(trans-4-F)][Gly(cPr)][NMe(hhhLys)]L[X42]; lactam 3-C): 40
COCCn1cc(-c2ccc(Cl)cc2C[C@H]2C(=O)NCCCCC=CC[C@H](N(C)C(=O)[C@@H](NC(=O)[C@@H]3C[C@@H](F)CN3C(=O)C3(C(F)(F)F)CC(F)(F)C3)C3CC3)C(=O)N[C@@H](CC(C)C)C(=O)N2C)cn1: 40

====

assayed.target: CyclinB1/CDK1 (Homo sapiens)
Construct: purchased Eurofins, discovery 14-450
measurement.notes: Fluorescence Polarization (FP) competitive binding assay, Cyclin B1/Cdk1;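 further: fluorescence polarization read after equilibration at room temperature, with IC50 taken from serially diluted dose-response curves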
measurement.context: 10 nM Cyclin B1/Cdk1, 2 nM FAM probe; average of 2-3 independent experiments; read-out: Cyclin B FP IC50
pIC50: −log10 of the molar value. *1 amine or outer side, *2 acyl side, *3 side chain or, on linkers, in order; H or OH if unused. Where a SMILES comes first, the peptide text is derived from it. Bridges are numbered along the chain shown (N, C = ends). [ ]: non-standard residue; d: D form. The star is where a group is joined. X181 = CN([C@@H](Cc1cc(Cl)ccc1C1=CCN(C(=O)C2CC2)CC1)C(=O)[*:2])[*:1]; NMe(hhhLys) = CN([C@@H](CCCCCCCN[*:3])C(=O)[*:2])[*:1]; cBuCO(3,3-F2-1-CF3) = O=C(C1(C(F)(F)F)CC(F)(F)C1)*; Pro(trans-4-F) = O=C(O)[C@@H]1C[C@@H](F)CN1; Gly(cPr) = N[C@H](C(=O)O)C1CC1
parameter: pIC50

CC(C)C[C@@H]1NC(=O)[C@@H](N(C)C(=O)[C@@H](NC(=O)[C@@H]2C[C@@H](F)CN2C(=O)C2(C(F)(F)F)CC(F)(F)C2)C2CC2)CCCCCCCNC(=O)[C@H](Cc2cc(Cl)ccc2C2=CCN(C(=O)C3CC3)CC2)N(C)C1=O [Example 97] ({cBuCO(3,3-F2-1-CF3)}-[Pro(trans-4-F)][Gly(cPr)][NMe(hhhLys)]L[X181]; lactam 3-C): 7.70
CC(C)C[C@@H]1NC(=O)[C@@H](N(C)C(=O)[C@H](CCC(=O)N2CCN(C)CC2)NC(=O)[C@@H]2C[C@@H](F)CN2C(=O)C2(C(F)(F)F)CC(F)(F)C2)CCCCCCCN(C)C(=O)[C@H](Cc2cc(Cl)ccc2-c2ccc(N3CCOCC3)cc2)N(C)C1=O: 7.70

====

Tested on: NCI-H1048 cells
measurement.notes: MTT proliferation assay, NCI-H1048
Assay type: cell-based
measurement.context: 5 days compound exposure, 1:3 serial dilution starting at 10 μM
*1 amine or outer side, *2 acyl side, *3 side chain or, on linkers, in order; H or OH if unused. Where a SMILES comes first, the peptide text is derived from it. Bridges are numbered along the chain shown (N, C = ends). [ ]: non-standard residue; d: D form. The star is where a group is joined. X57 = CC(C)C(=O)N1C2C=C(c3ccc(Cl)cc3C[C@@H](C(=O)[*:2])N(C)[*:1])CC1CC2; NMehhhLys(Me) = CN([C@@H](CCCCCCCN(C)[*:3])C(=O)[*:2])[*:1]; NMe(hhhLys) = CN([C@@H](CCCCCCCN[*:3])C(=O)[*:2])[*:1]; X143 = CN([C@@H](Cc1cc(F)cc2cccnc12)C(=O)[*:2])[*:1]; cBuCO(3,3-F2-1-CF3) = O=C(C1(C(F)(F)F)CC(F)(F)C1)*; Pro(trans-4-F) = O=C(O)[C@@H]1C[C@@H](F)CN1; Gly(cPr) = N[C@H](C(=O)O)C1CC1
parameter: GI50 (nM)

CC(C)C[C@@H]1NC(=O)[C@@H](N(C)C(=O)[C@@H](NC(=O)[C@@H]2C[C@@H](F)CN2C(=O)C2(C(F)(F)F)CC(F)(F)C2)C2CC2)CCCCCCCN(C)C(=O)[C@H](Cc2cc(F)cc3cccnc23)N(C)C1=O [Example 423] ({cBuCO(3,3-F2-1-CF3)}-[Pro(trans-4-F)][Gly(cPr)][NMehhhLys(Me)]L[X143]; lactam 3-C): 200
CC(C)C[C@@H]1NC(=O)[C@@H](N(C)C(=O)[C@@H](NC(=O)[C@@H]2C[C@@H](F)CN2C(=O)C2(C(F)(F)F)CC(F)(F)C2)C2CC2)CCCCCCCNC(=O)[C@H](Cc2cc(Cl)ccc2C2=CC3CCC(C2)N3C(=O)C(C)C)N(C)C1=O (stereo partly drawn) [Example 193] ({cBuCO(3,3-F2-1-CF3)}-[Pro(trans-4-F)][Gly(cPr)][NMe(hhhLys)]L[X57]; lactam 3-C): 10

====

System: NCI-H1048 cells
measurement.notes: MTT proliferation assay, NCI-H1048;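 further: Dose-response in 96-well plates over 8 or 10 concentration points, with exposure spanning 3-4 cell doublings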
Format: cell-based
measurement.context: 5 days compound exposure, 1:3 serial dilution starting at 10 μM
*1 amine or outer side, *2 acyl side, *3 side chain or, on linkers, in order; H or OH if unused. Where a SMILES comes first, the peptide text is derived from it. Bridges are numbered along the chain shown (N, C = ends). [ ]: non-standard residue; d: D form. The star is where a group is joined. X46 = CN([C@@H](Cc1cc(Cl)ccc1-c1ccc(S(C)(=O)=O)cc1)C(=O)[*:2])[*:1]; NMehhhLys(Me) = CN([C@@H](CCCCCCCN(C)[*:3])C(=O)[*:2])[*:1]; X118 = Cc1cc(-c2ccc(Cl)cc2C[C@@H](C(=O)[*:2])N(C)[*:1])cnn1; NMe(hhhLys) = CN([C@@H](CCCCCCCN[*:3])C(=O)[*:2])[*:1]; cBuCO(3,3-F2-1-CF3) = O=C(C1(C(F)(F)F)CC(F)(F)C1)*; X25 = CCOc1ncc(Cl)cc1C[C@@H](C(=O)[*:2])N(C)[*:1]; Pro(trans-4-F) = O=C(O)[C@@H]1C[C@@H](F)CN1; Gly(cPr) = N[C@H](C(=O)O)C1CC1
In this section, each of the compounds is paired with its reported GI50.
parameter: GI50 (nM)

CCOc1ncc(Cl)cc1C[C@H]1C(=O)N(C)CCCCCCC[C@H](N(C)C(=O)[C@@H](NC(=O)[C@@H]2C[C@@H](F)CN2C(=O)C2(C(F)(F)F)CC(F)(F)C2)C2CC2)C(=O)N[C@@H](CC(C)C)C(=O)N1C [Example 225] ({cBuCO(3,3-F2-1-CF3)}-[Pro(trans-4-F)][Gly(cPr)][NMehhhLys(Me)]L[X25]; lactam 3-C): 20
Cc1cc(-c2ccc(Cl)cc2C[C@H]2C(=O)NCCCCCCC[C@H](N(C)C(=O)[C@@H](NC(=O)[C@@H]3C[C@@H](F)CN3C(=O)C3(C(F)(F)F)CC(F)(F)C3)C3CC3)C(=O)N[C@@H](CC(C)C)C(=O)N2C)cnn1 [Example 295] ({cBuCO(3,3-F2-1-CF3)}-[Pro(trans-4-F)][Gly(cPr)][NMe(hhhLys)]L[X118]; lactam 3-C): 80
CC(C)C[C@@H]1NC(=O)[C@@H](N(C)C(=O)[C@@H](NC(=O)[C@@H]2C[C@@H](F)CN2C(=O)C2(C(F)(F)F)CC(F)(F)C2)C2CC2)CCCCCCCN(C)C(=O)[C@H](Cc2cc(Cl)ccc2-c2ccc(S(C)(=O)=O)cc2)N(C)C1=O [Example 262] ({cBuCO(3,3-F2-1-CF3)}-[Pro(trans-4-F)][Gly(cPr)][NMehhhLys(Me)]L[X46]; lactam 3-C): 10
